I'd be grateful if you could share measured GI50 for these entries.
system: SK-MEL-28; experiment: NCI tumour cell line growth inhibition, 48 h
Active and inactive are the calls of the source. No stated cut-off is given here; in the data, active = GI50 up to about 1.1 µM and inactive = higher.

# map each molecule to its GI50
1. CCCCC(/C=N/NC(=N)N)CC.Cc1cc(O)c(C(C)C)cc1S(=O)(=O)O
2. CCOC(=O)C1C(=O)C(C(=O)OCC)C(c2ccccc2)N(C)C1c1ccccc1 (stereo not given)
3. Cc1ccc2c3c(cnc2n1)C(=O)OCCN3C
4. CC(=O)NNC(=S)N/C=C1/C(=O)C=C(C)OC1=O
5. COc1c(-c2ccccc2)nc2ccc(Oc3ccccc3)nn12
6. Cc1cccc(NC(=O)C(=O)C(C2OC(=O)c3ccccc32)[N+](=O)[O-])c1C (stereo not given)
7. Fc1ccc(OCc2nc3cc(C(F)(F)F)ccc3nc2-c2ccccc2)cc1
8. COC(=O)C1=C(C)N(NC(=O)c2ccccc2)C(C)(O)C12CCOC2=O (stereo not given)

Result:
["40.6 µM (inactive)", "> 100 µM (inactive)", "> 100 µM (inactive)", "> 100 µM (inactive)", "> 51.8 µM (inactive)", "12.6 µM (inactive)", "> 100 µM (inactive)", "> 100 µM (inactive)"]

# map each molecule to its GI50
1. Cc1cc(C)c(-n2[nH]c(=O)n(C)c2=O)c(C)c1
2. CSc1ccccc1P(c1ccccc1SC)c1ccccc1SC

Result:
["> 100 µM (inactive)", "> 100 µM (inactive)"]
